Catalogue of cell count readings, one per entry.
# Tested on: Jurkat
# assay-name: cell count relative to DMSO control (fraction of control); higher = more cells (less growth inhibition)
# run-conditions: 48 h
Where a name gives a salt, the structure may show the parent alone.

compound: CNCC[C@@H](Oc1ccccc1C)c1ccccc1 [Atomoxetine·HCl] (concentration: 25 µM)
cell count: 0.81

compound: Cc1cccc(Nc2ccncc2S(=O)(=O)NC(=O)NC(C)C)c1 [Torsemide] (concentration: 25 µM)
cell count: 0.866

compound: CC(C)(C)C(=O)OCOP(=O)(COCCn1cnc2c(N)ncnc21)OCOC(=O)C(C)(C)C [Adefovir Dipivoxil] (concentration: 25 µM)
cell count: 0.23

compound: CCOC(=O)[C@H](CCc1ccccc1)N[C@H]1CCc2ccccc2N(CC(=O)O)C1=O [Benazepril·HCl] (concentration: 25 µM)
cell count: 0.885

In: Recorded cell count for COCCOC(=O)C1=C(C)NC(C)=C(C(=O)OC(C)C)C1c1cccc([N+](=O)[O-])c1 (centres undefined) [Nimodipine] (concentration: 25 µM) , please?
Out: 0.628

In: Same thing, different compound: NS(=O)(=O)c1cc(C2(O)NC(=O)c3ccccc32)ccc1Cl (centres undefined) [Chlorthalidone] (concentration: 25 µM)
Out: 0.918

In: Same thing, different compound: Cc1ccccc1N1C(=O)c2cc(S(N)(=O)=O)c(Cl)cc2NC1C (centres undefined) [Metolazone] (concentration: 25 µM)
Out: 0.918

In: Same thing, different compound: NCCCC[C@H](N[C@@H](CCc1ccccc1)C(=O)O)C(=O)N1CCC[C@H]1C(=O)O [Lisinopril·2H2O] (concentration: 25 µM)
Out: 0.884

In: Same thing, different compound: O=C(O)P(=O)(O)O [Foscarnet·Na (Sodium Phosphonoformate Tribasic Hexahydrate)] (concentration: 25 µM)
Out: 0.59

In: Same thing, different compound: C=C1/C(=C\C=C2/CCC[C@]3(C)[C@@H]([C@H](C)CCCC(C)(C)O)CC[C@@H]23)C[C@@H](O)C[C@@H]1O [Calcitriol] (concentration: 25 µM)
Out: 0.893

In: Same thing, different compound: O=C(O)C[C@H](O)C[C@H](O)/C=C/c1c(C2CC2)nc2ccccc2c1-c1ccc(F)cc1 [Pitavastatin Calcium] (concentration: 25 µM)
Out: 0.647

In: Same thing, different compound: CC1=C(/C=C/C(C)=C/C=C/C(C)=C\C(=O)O)C(C)(C)CCC1 [Isotretinoin (13-Cis-Retinoic Acid)] (concentration: 25 µM)
Out: 1.02

In: Same thing, different compound: CN(C)c1cc(NC(=O)CNC(C)(C)C)c(O)c2c1C[C@H]1C[C@H]3[C@H](N(C)C)C(=O)C(C(N)=O)=C(O)[C@@]3(O)C(=O)C1=C2O [Tigecycline] (concentration: 25 µM)
Out: 0.784

In: Same thing, different compound: CCCCCCCN(CC)CCCC(O)c1ccc(NS(C)(=O)=O)cc1 (centres undefined) [Ibutilide Fumarate] (concentration: 25 µM)
Out: 0.903
